Answer each item with its documented Release of IFNγ by CTL, T2 cells loaded with the peptide.
# Test system: T2 cells
# test summary: IFNγ release by CTL (ELISA) after incubation with peptide-loaded T2 cells
# Assay type: cell-based, human
# test context: Day 1 after peptide loading; CTL elicited with the corresponding HER2/neu peptide; 20 h; 10^5 CTL/well
Give a bare numeral; the unit pg/mL is implied.

Which Release of IFNγ by CTL, T2 cells loaded with the peptide reading was recorded for the substance MRYMILGLLALAAVCSA CLTSTVQLV (MRYMILGLLALAAVCSACLTSTVQLV) [ES-HER789-797] ?
1824

Which Release of IFNγ by CTL, T2 cells loaded with the peptide reading was recorded for the substance M R CLTSTVQLV A A V C S A (MRCLTSTVQLVAAVCSA) [HER789-797-IN-ES] ?
246

Which Release of IFNγ by CTL, T2 cells loaded with the peptide reading was recorded for the substance HLYQGCQVV MRYMILGLLALAAVCSA (HLYQGCQVVMRYMILGLLALAAVCSA) [HER48-56-ES] ?
418

Which Release of IFNγ by CTL, T2 cells loaded with the peptide reading was recorded for the substance CLTSTVQLV MTNKCLLQIALLLCFSTTA (CLTSTVQLVMTNKCLLQIALLLCFSTTA) [HER789-797-IS] ?
69

Which Release of IFNγ by CTL, T2 cells loaded with the peptide reading was recorded for the substance M R IISAVVGIL A A V C S A (MRIISAVVGILAAVCSA) [HER654-662-IN-ES] ?
2929

Which Release of IFNγ by CTL, T2 cells loaded with the peptide reading was recorded for the substance IISAVVGIL MRYMILGLLALAAVCSA (IISAVVGILMRYMILGLLALAAVCSA) [HER654-662-ES] ?
144

Which Release of IFNγ by CTL, T2 cells loaded with the peptide reading was recorded for the substance MTNKCLLQIALLLCFSTTALS CLTSTVQLV (MTNKCLLQIALLLCFSTTALSCLTSTVQLV) [IS-HER789-797] ?
1717

Which Release of IFNγ by CTL, T2 cells loaded with the peptide reading was recorded for the substance MRYMILGLLALAAVCSA HLYQGCQVV (MRYMILGLLALAAVCSAHLYQGCQVV) [ES-HER48-56] ?
2894

====

# Tested on: DU145 (HLA-A2−)
# test summary: LDH-release cytotoxicity assay of STEAP-specific CTL against HLA-A2-negative control cell line
# Format: cell-based, human
# test context: CTL specific for the peptide; 4-hour LDH-release assay
Answer each item with its documented Percent LDH released from DU145 (HLA-A2−).
Give a bare numeral; the unit % is implied.

Which Percent LDH released from DU145 (HLA-A2−) reading was recorded for the sequence LLNWAYQQV (listed as Homo sapiens) [STEAP192-200] ?
18

Which Percent LDH released from DU145 (HLA-A2−) reading was recorded for the sequence YLPGVIAAV [STEAP130-138 - 9V] ?
−2

Which Percent LDH released from DU145 (HLA-A2−) reading was recorded for the sequence YLWGVIAAI [STEAP130-138 - 3W] ?
−2

Which Percent LDH released from DU145 (HLA-A2−) reading was recorded for the sequence FLWGVIAAV [STEAP130-138 - 1F/3W/9V] ?
1

Which Percent LDH released from DU145 (HLA-A2−) reading was recorded for the sequence FLPGVIAAI [STEAP130-138 - 1F] ?
−1

Which Percent LDH released from DU145 (HLA-A2−) reading was recorded for the sequence YLPGVIAAI (listed as Homo sapiens) [STEAP130-138] ?
−1

Which Percent LDH released from DU145 (HLA-A2−) reading was recorded for the sequence LLSFFFAVL (listed as Homo sapiens) [STEAP166-174] ?
4

====

# Tested on: T2 cells
# test summary: IFNγ release by CTL (ELISA) after incubation with peptide-loaded T2 cells
# Type: cell-based, human
# test context: Day 1 after peptide loading; CTL elicited with the corresponding HER2/neu peptide; 20 h; 10^5 CTL/well
observable: Release of IFNγ by CTL, T2 cells loaded with the peptide (pg/mL)
Give a bare numeral; the unit pg/mL is implied.

GET /values?readout=Release of IFNγ by CTL, T2 cells loaded with the peptide&system=T2 cells&item= HLYQGCQVV MTNKCLLQIALLLCFSTTALS (HLYQGCQVVMTNKCLLQIALLLCFSTTALS) [HER48-56-IS]
288

GET /values?readout=Release of IFNγ by CTL, T2 cells loaded with the peptide&system=T2 cells&item= MA HLYQGCQVV AAAAAG (MAHLYQGCQVVAAAAAG) [HER48-56-IN-AF]
3488

GET /values?readout=Release of IFNγ by CTL, T2 cells loaded with the peptide&system=T2 cells&item= CLTSTVQLV MRYMILGLLALAAVCSA (CLTSTVQLVMRYMILGLLALAAVCSA) [HER789-797-ES]
58

GET /values?readout=Release of IFNγ by CTL, T2 cells loaded with the peptide&system=T2 cells&item= MTNKCLLQIALLLCFSTTALS IISAVVGIL (MTNKCLLQIALLLCFSTTALSIISAVVGIL) [IS-HER654-662]
2590

GET /values?readout=Release of IFNγ by CTL, T2 cells loaded with the peptide&system=T2 cells&item= IISAVVGIL (listed as Homo sapiens) [HER2/neu654-662, reference compound]
2827

====

# Test system: T2 cells
# test summary: IFNγ release by CTL (ELISA) after incubation with peptide-loaded T2 cells
# Assay type: cell-based, human
# test context: Day 1 after peptide loading; CTL elicited with the corresponding HER2/neu peptide; 20 h; 10^5 CTL/well
Rule: Release of IFNγ by CTL, T2 cells loaded with the peptide under 2000 pg/mL gives class 0, otherwise class 1.

In plain terms: is recorded Release of IFNγ by CTL, T2 cells loaded with the peptide at least 2000 pg/mL for HLYQGCQVV (listed as Homo sapiens) [HER2/neu48-56] ?
class 1

In plain terms: is recorded Release of IFNγ by CTL, T2 cells loaded with the peptide at least 2000 pg/mL for MR HLYQGCQVV AAVCSA (MRHLYQGCQVVAAVCSA) [HER48-56-IN-ES] ?
class 1

In plain terms: is recorded Release of IFNγ by CTL, T2 cells loaded with the peptide at least 2000 pg/mL for M A CLTSTVQLV A A A A A G (MACLTSTVQLVAAAAAG) [HER789-797-IN-AF] ?
class 0

In plain terms: is recorded Release of IFNγ by CTL, T2 cells loaded with the peptide at least 2000 pg/mL for M A IISAVVGIL A A A A A G (MAIISAVVGILAAAAAG) [HER654-662-IN-AF] ?
class 1

In plain terms: is recorded Release of IFNγ by CTL, T2 cells loaded with the peptide at least 2000 pg/mL for MTNKCLLQIALLLCFSTTALS HLYQGCQVV (MTNKCLLQIALLLCFSTTALSHLYQGCQVV) [IS-HER48-56] ?
class 1

In plain terms: is recorded Release of IFNγ by CTL, T2 cells loaded with the peptide at least 2000 pg/mL for CLTSTVQLV (listed as Homo sapiens) [HER2/neu789-797] ?
class 1

In plain terms: is recorded Release of IFNγ by CTL, T2 cells loaded with the peptide at least 2000 pg/mL for MRYMILGLLALAAVCSA IISAVVGIL (MRYMILGLLALAAVCSAIISAVVGIL) [ES-HER654-662] ?
class 1

In plain terms: is recorded Release of IFNγ by CTL, T2 cells loaded with the peptide at least 2000 pg/mL for IISAVVGIL MTNKCLLQIALLLCFSTTALS (IISAVVGILMTNKCLLQIALLLCFSTTALS) [HER654-662-IS] ?
class 0
